System: HCT-15 colon
Experiment: NCI tumour cell line growth inhibition, 48 h
As shown below, each of these compounds has a reported TGI value.

CC(C)(CO)CNc1cc(Cl)nc(N)n1 | > 100 µM

TGI lookup needed for `N#CNC1=NCCC(=O)N1CCc1c[nH]c2ccccc12` , thanks.
> 100 µM

Now the same for `CC1=NN2CCC(=O)N=C2S1`
> 100 µM

For `N#Cc1c(N2CCCC2)nsc1Nc1ccccc1` then?
> 100 µM

Here is the next compound: `CC1=NN(c2nc(N)nc(-c3cc4ccccc4oc3=N)n2)C(C)(C)C1`
35.9 µM

Please answer likewise for COC(=O)C(CNC(=O)/C=C/c1ccc(OC(C)=O)c(OC(C)=O)c1)NC(=O)/C=C/c1ccc(OC(C)=O)c(OC(C)=O)c1 (stereo unspecified)
> 100 µM
